B1: INTS3 (parent)
chain: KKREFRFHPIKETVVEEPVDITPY

Variants of: B1
Test: protein stability index of a GFP-peptide fusion (GPS, HEK-293T) (PSI 1-6); higher = more stable;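 also: lentivirally expressed fusions sorted by FACS into six bins by GFP to DsRed ratio, PSI derived from sequencing read proportions per bin multiplied by bin number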
Conditions: c terminus: a fixed tail appended
Reported protein stability index values are given for each entry in this list.

SEQUENCE_CHANGE | protein stability index
E17C | 1.97
V19Y | 2.28
V14S | 3.05
K1E | 2.27
V14L | 1.82
V15I | 1.67
E16V | 1.95
K2M | 2.2
R6V | 3.49
I21E | 2.37
I10V | 1.98
E12F | 2.96
F7Q | 4.24
E17M | 1.95
P18M | 1.99
T22P | 1.86
E4W | 1.41
E17K | 1.43
V15W | 1.53
T13G | 2.33
P18F | 2.72
K1C | 1.81
D20H | 2.25
R3T | 1.73
I10C | 1.51
Y24K | 1.71
R3N | 1.76
P23V | 1.44
F5M | 4.36
D20L | 1.56
P23W | 2.28
V14Y | 1.89
E12A | 1.97
K11G | 2.04
P23D | 2.04
K11R | 1.88
E17T | 2.13
I10S | 1.64
K2P | 2.5
R3S | 1.66
I21W | 2.1
I21R | 1.59
D20R | 2.22
P18I | 1.64
F5P | 4.18
V15E | 2.41
